Origin of the recorded values: ChEMBL document CHEMBL5528028

Form field: MIC (one value per entry).
Tested on: Staphylococcus aureus
Assay: Antibacterial activity against Staphylococcus aureus ATCC 25923 assessed growth inhibition by micro broth dilution method
Assay type: functional
assay_readout: MIC (µg/mL)

molecule: CCOC(=O)c1cn(Cc2ccc(F)cc2F)c2cc(C(C#N)C(=O)OCC)c(F)cc2c1=O (stereo not given)
recorded_value: 4
--
molecule: CCOC(=O)c1cn(C)c2cc([C-](C#N)C(=O)OCC)c(F)cc2c1=O.[Na+] (stereo not given)
recorded_value: 1
--
molecule: C=CCn1cc(C(=O)OCC)c(=O)c2cc(F)c([C-](C#N)C(=O)OCC)cc21.[Na+] (stereo not given)
recorded_value: 2
--
molecule: CCOC(=O)c1cn(Cc2ccc(Cl)c(Cl)c2)c2cc(C(C#N)C(=O)OCC)c(F)cc2c1=O (stereo not given)
recorded_value: 1
--
molecule: CCCCCCn1cc(C(=O)OCC)c(=O)c2cc(F)c(F)cc21
recorded_value: 128

###

Tested on: Klebsiella pneumoniae
Test: Antibacterial activity against Klebsiella pneumonia assessed growth inhibition by micro broth dilution method
Assay type: functional

compound: CCOC(=O)c1cn(Cc2ccc(Cl)cc2Cl)c2cc([C-](C#N)C(=O)OCC)c(F)cc2c1=O.[Na+] (centres undefined)
unit_symbol: mg/L
MIC: 0.25

compound: CCOC(=O)c1cn(Cc2ccccc2)c2cc(C(C#N)C(=O)OCC)c(F)cc2c1=O (centres undefined)
unit_symbol: mg/L
MIC: 2

compound: CCOC(=O)C(C#N)c1cc2c(cc1F)c(=O)c(C(=O)O)cn2C1CC1 (centres undefined)
unit_symbol: mg/L
MIC: 0.25

compound: CCCCCCCCn1cc(C(=O)O)c(=O)c2cc(F)c(C(C#N)C(=O)OCC)cc21 (centres undefined)
unit_symbol: mg/L
MIC: 0.25

compound: CCOC(=O)c1cn(CC2CCCCC2)c2cc(C(C#N)C(=O)OCC)c(F)cc2c1=O (centres undefined)
unit_symbol: mg/L
MIC: 4

compound: CCCn1cc(C(=O)OCC)c(=O)c2cc(F)c([C-](C#N)C(=O)OCC)cc21.[Na+] (centres undefined)
unit_symbol: mg/L
MIC: 16

compound: C=CCn1cc(C(=O)OCC)c(=O)c2cc(F)c([C-](C#N)C(=O)OCC)cc21.[Na+] (centres undefined)
unit_symbol: mg/L
MIC: 32

compound: CCCCCCCCCCCCn1cc(C(=O)OCC)c(=O)c2cc(F)c([C-](C#N)C(=O)OCC)cc21.[Na+] (centres undefined)
unit_symbol: mg/L
MIC: 1

compound: CCOC(=O)c1cn(CC2CCC2)c2cc(F)c(F)cc2c1=O
unit_symbol: mg/L
MIC: 32

###

System: Staphylococcus aureus
Experiment: Antibacterial activity against Staphylococcus aureus ATCC 25923 assessed growth inhibition by micro broth dilution method
Type: functional
Form field: log10 of MIC (one value per entry).
assay_readout: log10 of MIC (log10 of the value in µg/mL)

compound: CCOC(=O)C(C#N)c1cc2c(cc1F)c(=O)c(C(=O)O)cn2CC=C(C)C (centres undefined)
log10 of MIC: 0.60
--
compound: CCOC(=O)c1cn(C2CC2)c2cc(C(C#N)C(=O)OCC)c(F)cc2c1=O (centres undefined)
log10 of MIC: 0.90
--
compound: CCOC(=O)c1cn(Cc2ccc(Cl)cc2)c2cc([C-](C#N)C(=O)OCC)c(F)cc2c1=O.[Na+] (centres undefined)
log10 of MIC: 0.00
--
compound: CCOC(=O)C(C#N)c1c(F)cc2c(=O)c(C(=O)O)cn3c2c1OC[C@@H]3C (some centres undefined)
log10 of MIC: 1.51
--
compound: CCOC(=O)c1cn(CC=C(C)C)c2cc([C-](C#N)C(=O)OCC)c(F)cc2c1=O.[Na+] (centres undefined)
log10 of MIC: -0.30
--
compound: CCOC(=O)c1cn(Cc2ccc(C)cc2)c2cc(F)c(F)cc2c1=O
log10 of MIC: 1.81
--
compound: CCOC(=O)c1cn(Cc2cnc(Cl)s2)c2cc([C-](C#N)C(=O)OCC)c(F)cc2c1=O.[Na+] (centres undefined)
log10 of MIC: 0.60
--
compound: CCOC(=O)c1cn(CC(N)=O)c2cc([C-](C#N)C(=O)OCC)c(F)cc2c1=O.[Na+] (centres undefined)
log10 of MIC: 2.41
--
compound: CCOC(=O)c1cn(Cc2ccc(F)cc2F)c2cc([C-](C#N)C(=O)OCC)c(F)cc2c1=O.[Na+] (centres undefined)
log10 of MIC: -0.30
